Collected IC50 values appear next to each entry.
Biological target: PI3Kγ (Homo sapiens, UniProt P48736)
Construct: made in house
Sequence (P48736 whole entry): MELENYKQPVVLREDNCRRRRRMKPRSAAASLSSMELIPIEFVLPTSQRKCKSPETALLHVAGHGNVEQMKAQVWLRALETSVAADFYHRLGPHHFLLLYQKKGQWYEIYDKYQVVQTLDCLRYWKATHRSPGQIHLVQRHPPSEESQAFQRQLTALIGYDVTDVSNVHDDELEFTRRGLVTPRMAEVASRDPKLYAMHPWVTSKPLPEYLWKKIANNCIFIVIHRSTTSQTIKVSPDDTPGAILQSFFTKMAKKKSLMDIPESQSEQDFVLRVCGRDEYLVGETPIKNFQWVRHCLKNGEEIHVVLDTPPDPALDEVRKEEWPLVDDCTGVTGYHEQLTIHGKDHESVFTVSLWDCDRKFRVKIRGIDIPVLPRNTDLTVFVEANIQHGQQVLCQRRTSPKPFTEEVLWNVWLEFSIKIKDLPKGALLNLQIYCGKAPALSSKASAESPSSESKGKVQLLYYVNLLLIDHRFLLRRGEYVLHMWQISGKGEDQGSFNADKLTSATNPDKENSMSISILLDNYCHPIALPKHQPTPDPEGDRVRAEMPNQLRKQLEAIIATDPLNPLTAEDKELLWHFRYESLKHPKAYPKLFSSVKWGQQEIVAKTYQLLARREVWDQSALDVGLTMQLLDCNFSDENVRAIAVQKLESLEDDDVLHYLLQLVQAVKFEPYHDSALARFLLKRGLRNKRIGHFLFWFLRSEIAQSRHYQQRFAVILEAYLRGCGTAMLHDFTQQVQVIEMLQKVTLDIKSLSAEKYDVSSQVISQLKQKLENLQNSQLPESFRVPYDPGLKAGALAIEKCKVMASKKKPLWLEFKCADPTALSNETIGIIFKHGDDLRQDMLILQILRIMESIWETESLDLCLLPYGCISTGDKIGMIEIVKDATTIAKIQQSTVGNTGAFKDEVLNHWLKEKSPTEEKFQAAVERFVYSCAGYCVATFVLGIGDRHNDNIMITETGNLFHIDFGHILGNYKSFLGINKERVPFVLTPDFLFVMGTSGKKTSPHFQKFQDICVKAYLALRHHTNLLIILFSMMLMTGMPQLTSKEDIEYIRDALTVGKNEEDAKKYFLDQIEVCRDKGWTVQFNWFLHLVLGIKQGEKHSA
Sequence (Q8WYR1 whole entry partner): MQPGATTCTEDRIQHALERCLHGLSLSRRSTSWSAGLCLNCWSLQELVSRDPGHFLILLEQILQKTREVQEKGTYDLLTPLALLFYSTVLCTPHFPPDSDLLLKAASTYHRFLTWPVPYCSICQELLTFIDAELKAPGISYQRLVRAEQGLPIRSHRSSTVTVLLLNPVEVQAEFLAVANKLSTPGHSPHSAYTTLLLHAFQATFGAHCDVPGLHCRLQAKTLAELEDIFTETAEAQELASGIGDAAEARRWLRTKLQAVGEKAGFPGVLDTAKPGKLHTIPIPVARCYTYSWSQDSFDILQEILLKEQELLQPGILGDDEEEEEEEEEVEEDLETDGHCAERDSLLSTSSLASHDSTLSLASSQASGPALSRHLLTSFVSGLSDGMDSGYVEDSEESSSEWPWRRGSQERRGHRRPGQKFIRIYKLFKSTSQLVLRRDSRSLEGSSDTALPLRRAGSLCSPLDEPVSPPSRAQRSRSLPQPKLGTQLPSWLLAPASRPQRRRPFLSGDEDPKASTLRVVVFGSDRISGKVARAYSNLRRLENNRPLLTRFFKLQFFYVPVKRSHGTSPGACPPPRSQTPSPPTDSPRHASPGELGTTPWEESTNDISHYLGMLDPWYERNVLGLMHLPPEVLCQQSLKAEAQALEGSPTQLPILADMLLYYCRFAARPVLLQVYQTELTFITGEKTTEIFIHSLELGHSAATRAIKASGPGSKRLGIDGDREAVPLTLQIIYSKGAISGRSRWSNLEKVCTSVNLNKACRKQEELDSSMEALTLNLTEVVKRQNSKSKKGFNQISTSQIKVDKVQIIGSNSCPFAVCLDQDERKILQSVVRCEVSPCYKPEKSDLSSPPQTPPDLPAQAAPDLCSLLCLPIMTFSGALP
Assay: TR-FRET enzymatic activity assay, PI3Kγ
Type: biochemical
Settings: recombinant heterodimeric PI3Kγ 2 nM, 2× Km ATP, 30 minutes at 25°C

Before answering, review these 6 worked examples.
                                   compound  value_observed
0  C[C@H](Nc1ncnc(N)c1C#N)c1nc2cccc(Cl)c2c(=O)n1N1CCC(N)C1 (stereo partly shown) [Compound 130]         > 10 µM
1  C[C@H](Nc1nc(N)nc(N)c1C#N)c1nc2cccc(Cl)c2c(=O)n1-c1ccccc1 [Compound X, reference compound]        0.007 µM
2  CC[C@H](Nc1nc(N)nc(C)c1C#N)c1nc2cccc(Cl)c2c(=O)n1N1CCN(Cc2ccc(C(F)(F)F)cc2)CC1 [Compound 89]         > 10 µM
3  C[C@H](Nc1nc(N)nc(N)c1C#N)c1nc2c(F)ccc(F)c2c(=O)n1N1CCNCC1 [Compound 39]          5.4 µM
4  Cc1nc(N)nc(N[C@@H](C)c2nc3cccc(Cl)c3c(=O)n2[C@H]2CCCNCC2)c1C#N [Compound 10]         > 10 µM
5  C[C@H](Nc1ncnc2scnc12)c1nc2c(F)ccc(Cl)c2c(=O)n1N1CCNCC1 [Compound 50]         > 10 µM

Please report IC50 for the following compound: C[C@H](Nc1ncnc2ccoc12)c1nc2cccc(Cl)c2c(=O)n1N1CCNCC1 [Compound 34]
> 10 µM

----------
Collected IC50 values appear next to each entry.
Molecular target: PI3Kγ (Homo sapiens, UniProt P48736)
Construct: made in house
Test: TR-FRET enzymatic activity assay, PI3Kγ
Assay type: biochemical
Settings: recombinant heterodimeric PI3Kγ 2 nM, 2× Km ATP, 30 minutes at 25°C

Before answering, review these 2 worked examples.
>>> df
                                   molecule  value_observed
0  CC[C@H](Nc1nc(N)nc(C)c1C#N)c1nc2cccc(Cl)c2c(=O)n1N1CCNCC1          1.8 µM
1  C[C@H](Nc1ncnc(N)c1C#N)c1nc2cccc(Cl)c2c(=O)n1N1CCCNCC1 [Compound 67]         > 10 µM

Give the observed IC50 of C[C@H](Nc1ncnc2cccnc12)c1nc2cccc(Cl)c2c(=O)n1N1CCNCC1 for PI3Kγ (Homo sapiens, UniProt P48736).
> 10 µM

----------
Molecular target: PI3Kβ (Homo sapiens, UniProt P42338)
Construct: made in house
Sequence (P42338 whole entry): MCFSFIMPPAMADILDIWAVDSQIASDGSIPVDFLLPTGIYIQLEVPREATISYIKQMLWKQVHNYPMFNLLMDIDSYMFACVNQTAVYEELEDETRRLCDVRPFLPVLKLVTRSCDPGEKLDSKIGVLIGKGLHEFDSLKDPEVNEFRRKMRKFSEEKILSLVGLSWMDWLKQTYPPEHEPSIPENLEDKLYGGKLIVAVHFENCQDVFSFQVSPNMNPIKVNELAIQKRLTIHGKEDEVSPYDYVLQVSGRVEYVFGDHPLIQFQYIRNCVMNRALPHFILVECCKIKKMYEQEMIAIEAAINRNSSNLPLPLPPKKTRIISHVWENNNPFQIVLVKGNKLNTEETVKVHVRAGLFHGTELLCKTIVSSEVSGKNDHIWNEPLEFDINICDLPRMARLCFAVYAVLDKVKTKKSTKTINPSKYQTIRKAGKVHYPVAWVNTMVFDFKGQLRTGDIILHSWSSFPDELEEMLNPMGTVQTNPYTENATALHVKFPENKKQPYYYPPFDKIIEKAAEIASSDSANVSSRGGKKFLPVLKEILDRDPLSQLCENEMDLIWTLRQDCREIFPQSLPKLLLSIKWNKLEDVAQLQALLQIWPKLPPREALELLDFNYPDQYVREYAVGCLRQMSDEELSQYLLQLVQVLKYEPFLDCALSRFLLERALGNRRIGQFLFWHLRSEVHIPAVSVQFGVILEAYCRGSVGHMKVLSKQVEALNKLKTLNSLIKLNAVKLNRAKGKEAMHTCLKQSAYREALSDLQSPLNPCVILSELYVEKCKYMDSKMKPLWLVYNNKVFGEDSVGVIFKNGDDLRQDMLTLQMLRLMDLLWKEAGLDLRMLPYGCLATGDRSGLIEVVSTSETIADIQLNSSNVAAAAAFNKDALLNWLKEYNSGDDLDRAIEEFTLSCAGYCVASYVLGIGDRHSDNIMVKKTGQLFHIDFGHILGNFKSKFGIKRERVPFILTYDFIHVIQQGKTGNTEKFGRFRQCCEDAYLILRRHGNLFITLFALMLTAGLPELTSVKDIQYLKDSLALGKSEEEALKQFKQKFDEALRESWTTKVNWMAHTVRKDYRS
Sequence (P27986 whole entry partner): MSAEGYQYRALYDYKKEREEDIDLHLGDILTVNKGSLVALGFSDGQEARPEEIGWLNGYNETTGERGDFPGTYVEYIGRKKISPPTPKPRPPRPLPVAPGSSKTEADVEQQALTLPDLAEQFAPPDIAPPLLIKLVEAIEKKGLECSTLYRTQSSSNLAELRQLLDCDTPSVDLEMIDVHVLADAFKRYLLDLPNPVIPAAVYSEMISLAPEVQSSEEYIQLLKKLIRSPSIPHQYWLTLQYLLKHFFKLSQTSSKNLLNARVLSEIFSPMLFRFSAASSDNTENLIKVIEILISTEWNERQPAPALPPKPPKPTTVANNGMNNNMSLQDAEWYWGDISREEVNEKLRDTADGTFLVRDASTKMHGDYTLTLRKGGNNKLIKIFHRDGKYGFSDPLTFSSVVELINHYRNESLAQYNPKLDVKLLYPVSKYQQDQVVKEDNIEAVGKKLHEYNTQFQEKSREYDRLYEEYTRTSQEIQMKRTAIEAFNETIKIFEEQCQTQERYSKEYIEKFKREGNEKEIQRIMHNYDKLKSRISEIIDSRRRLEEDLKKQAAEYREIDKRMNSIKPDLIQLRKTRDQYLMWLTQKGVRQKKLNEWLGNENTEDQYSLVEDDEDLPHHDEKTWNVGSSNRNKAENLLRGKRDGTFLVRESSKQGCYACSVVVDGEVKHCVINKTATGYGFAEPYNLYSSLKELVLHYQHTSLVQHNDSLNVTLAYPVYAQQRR
Experiment: TR-FRET enzymatic activity assay, PI3Kβ
Format: biochemical
Settings: recombinant heterodimeric PI3Kβ 25-50 pM, 2× Km ATP, 30 minutes at 25°C
Collected pIC50 values appear next to each entry.
pIC50 here: minus log base 10 of the concentration, concentration in moles per litre.

Before answering, review these 3 worked examples.
>>> print(df.to_string())
                                   molecule                 target_or_test_system  value_observed
0  CC[C@H](Nc1ncnn2ccnc12)c1nc2cccc(Cl)c2c(=O)n1N1CCNCC1  PI3Kβ (Homo sapiens, UniProt P42338)            7.35
1  C[C@H](Nc1ncnc(N)c1C#N)c1nc2cccc(Cl)c2c(=O)n1C1CCN(C2CCN(C)CC2)CC1  PI3Kβ (Homo sapiens, UniProt P42338)            5.66
2  C[C@H](NC(=O)c1nccnc1N)c1nc2cccc(Cl)c2c(=O)n1N1CCNCC1  PI3Kβ (Homo sapiens, UniProt P42338)            7.68

Give the observed pIC50 of C[C@H](NC(=O)c1nc(Cl)c(N)nc1N)c1nc2cccc(Cl)c2c(=O)n1N1CCNCC1 for PI3Kβ (Homo sapiens, UniProt P42338).
8.40

Give the observed pIC50 of C[C@H](Nc1ncnc(N)c1C#N)c1nc2cccc(Cl)c2c(=O)n1C1CCCNC1 (some centres unmarked) for PI3Kβ (Homo sapiens, UniProt P42338).
6.57

Give the observed pIC50 of C[C@H](Nc1ncnc2scnc12)c1nc2cccc(Cl)c2c(=O)n1C1CCNCC1 for PI3Kβ (Homo sapiens, UniProt P42338).
7.20

Give the observed pIC50 of C[C@H](Nc1nc(N)nc(Cl)c1C#N)c1nc2cccc(Cl)c2c(=O)n1C1CCNCC1 for PI3Kβ (Homo sapiens, UniProt P42338).
8.00

Give the observed pIC50 of C[C@H](Nc1nc(N)nc(N)c1C#N)c1nc2cccc(Cl)c2c(=O)n1[C@H]1CCCNCC1 for PI3Kβ (Homo sapiens, UniProt P42338).
7.21

----------
Target: PI3Kβ (Homo sapiens)
Construct: made in house
Test: TR-FRET enzymatic activity assay, PI3Kβ
Type: biochemical
Details: recombinant heterodimeric PI3Kβ 25-50 pM, 2× Km ATP, 30 minutes at 25°C
VALUE TYPE: pIC50
pIC50 here: minus log base 10 of the concentration, concentration in moles per litre.

Before answering, review these 7 worked examples.
>>> print(df.to_string())
                                   compound  value_type  value_observed
0  O=c1c2c(F)ccc(F)c2nc([C@@H](Nc2ncnn3ccnc23)C2CC2)n1N1CCNCC1 [Compound 41]       pIC50            6.68
1  C[C@H](Nc1ncnc2[nH]cc(Br)c12)c1nc2cccc(Cl)c2c(=O)n1N1CCNCC1 [Compound 69]       pIC50            8.52
2  N#Cc1c(N)nc(N)nc1N[C@H](c1nc2c(F)ccc(Cl)c2c(=O)n1N1CCNCC1)C1CC1 [Compound 48]       pIC50            8.52
3  C[C@H](Nc1ncnn2ccnc12)c1nc2cccc(Cl)c2c(=O)n1N1CCCNCC1 [Compound 64]       pIC50            7.03
4  C[C@H](Nc1ncnc(N)c1Cl)c1nc2cccc(Cl)c2c(=O)n1N1CCNCC1 [Compound 37]       pIC50            7.41
5  CC[C@H](Nc1nc(N)nc(C)c1C#N)c1nc2cccc(Cl)c2c(=O)n1N1CCNCC1 [Compound 44]       pIC50            8.70
6  C[C@H](Nc1ncnc2scnc12)c1nc2c(Cl)ccc(Cl)c2c(=O)n1N1CCNCC1 [Compound 49]       pIC50            7.72

Next, consider the following compound.
Please report pIC50 for the following compound: C[C@H](Nc1nc(N)nc(N)c1Cl)c1nc2cccc(Cl)c2c(=O)n1N1CCN(CC(F)F)CC1 [Compound 112]
5.11

----------
Target: PI3Kγ (Homo sapiens)
Construct: made in house
Assay: TR-FRET enzymatic activity assay, PI3Kγ
Assay type: biochemical
Conditions: recombinant heterodimeric PI3Kγ 2 nM, 2× Km ATP, 30 minutes at 25°C
Protocol: The compounds of formula (I) were characterized for their enzymatic activity against the PI3K isoforms. The activities were measured using a time-resolved fluorescence resonance energy transfer (TR-FRET) assay.
VALUE TYPE: IC50 (µM)
Number in µM, nothing else.

Before answering, review these 3 worked examples.
>>> df
                              smiles_record  value_observed
0  C[C@H](Nc1nc(N)nc(N)c1C#N)c1nc2cccc(Cl)c2c(=O)n1N1CCN(Cc2ccccc2)CC1            0.58
1  C[C@H](Nc1nc(N)nc(N)c1C#N)c1nc2cccc(Cl)c2c(=O)n1N1CCN(CC(C)(C)C)CC1             1.2
2  CC[C@H](Nc1nc(N)nc(N)c1C#N)c1nc2cccc(Cl)c2c(=O)n1N1CCNCC1             2.1

Next, consider the following compound.
Please report IC50 for the following compound: C[C@H](Nc1nc(N)nc(N)c1C#N)c1nc2cccc(Cl)c2c(=O)n1[C@H]1CCCNC1
6.4

----------
Target: PI3Kβ (Homo sapiens)
Construct: made in house
Assay: TR-FRET enzymatic activity assay, PI3Kβ
Format: biochemical
Conditions: recombinant heterodimeric PI3Kβ 25-50 pM, 2× Km ATP, 30 minutes at 25°C
Collected pIC50 values appear next to each entry.
pIC50 here: minus log base 10 of the concentration, concentration in moles per litre.

Before answering, review these 3 worked examples.
>>> df
                                   compound  value_type  value_observed
0  N#Cc1c(N)nc(N)nc1N[C@H](c1nc2cccc(Cl)c2c(=O)n1N1CCOCC1)C1CC1       pIC50            6.87
1  C[C@H](Nc1ncnc(N)c1C#Cc1ccc(F)cn1)c1nc2cccc(Cl)c2c(=O)n1C1CNC1       pIC50            6.00
2  C[C@H](Nc1nc(N)nc(N)c1C#N)c1nc2cccc(Cl)c2c(=O)n1N1CCN(CCOC(C)(C)C)CC1       pIC50            8.00

Please report pIC50 for the following compound: C[C@H](Nc1ncnc2cccnc12)c1nc2cccc(Cl)c2c(=O)n1C1CCCNCC1 (stereo partly shown)
6.28

Value source: patent EP3154958B1
